Provenance of the data: patent US12310940B2

Tested on: intact cells
test: Screening assay (2): enhancement and inhibition of mitochondrial energy producing function in intact cells (FCCP uncoupled)
Format: cell-based, human
experimentalConditions: lowest concentration during compound titration at which a decrease in oxygen consumption is seen, screening assay 2
metricName: Toxicity (mM)
Respond numerically; units are mM and should not be typed.

Toxicity for CCC(=O)N[C@@H](CSC(=O)CCC(=O)O)C(=O)O [01-041] is 5

---
Toxicity for CC(=O)NCCSC(=O)CCC(=O)O [01-108] is 10

Toxicity for CC(=O)NCC(C)(C)SC(=O)CCC(=O)O [01-188] is 5

====

Reported Toxicity values follow for various compounds
System: intact cells
test: Screening assay (2): enhancement and inhibition of mitochondrial energy producing function in intact cells (FCCP uncoupled)
Type: cell-based, human
experimentalConditions: lowest concentration during compound titration at which a decrease in oxygen consumption is seen, screening assay 2
Respond numerically; units are mM and should not be typed.

Would you please look over these solved cases?
Toxicity for "CCN(CC)C(=O)COCCSC(=O)CCC(=O)O" is 5

Toxicity for "CCC(=O)NCCSC(=O)CCC(=O)O" is 10

Toxicity for "CCC(=O)N[C@@H](CSC(=O)CCC(=O)SC[C@H](NC(=O)CC)C(=O)N(CC)CC)C(=O)N(CC)CC" is 2

Consider the additional compound presented here.
Toxicity for "CCC(=O)N[C@@H](CSC(=O)CCC(=O)SC[C@H](NC(=O)CC)C(=O)OC)C(=O)OC" is 5
